Assay: chemical genetic growth profiling, strain panel (AID 1159580);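 note: tested at 20 µM; growth read once vehicle control cultures reached saturation at 30 °C; 1 = growth at the plate median or of vehicle wells; lower values mean less growth of the strain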
Settings: S. cerevisiae deletion strains, growth OD, locus YOR136W, strain idh2, stronger effect = lower value
Among all 5,500 compounds or so, about 2,000 (36%) were called active. Another 18% or so got no clear call; they are omitted. The list shows a part of the results.
ENDPOINT: normalized growth
Enter the number alone.

Given Nc1ccc(C(=O)O)cc1 , state its recorded normalized growth.
1.02

Any idea what its normalized growth is? The compound is Cc1cc(=O)[nH]c(=S)[nH]1
1

Item under review: C=C(C)C1(O)OC(=O)C=C1OC (stereo unspecified) . Reported normalized growth?
1

Value lookup for normalized growth; key = CC(=O)O[C@H]1CC[C@@]2(C)C(=CC(=O)C3C4CCC(C(C)CCCC(C)C)[C@@]4(C)CCC32)C1 (stereo partly specified)
0.995

Which normalized growth is reported for this compound? CS(=O)(=O)c1ccc([C@@H](O)[C@@H](CO)NC(=O)C(Cl)Cl)cc1
0.992

// returns reported normalized growth for input CCCc1cc(=O)[nH]c(=S)[nH]1
0.979

----------
Assay: chemical genetic growth profiling, strain panel (AID 1159580);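 note: tested at 20 µM; growth read once vehicle control cultures reached saturation at 30 °C; 1 = growth at the plate median or of vehicle wells; lower values mean less growth of the strain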
Conditions: S. cerevisiae deletion strains, growth OD, locus YKL068W, stronger effect = lower value
Hit rate of the full screen: of about 5,500 compounds, about 2,000 (36%) were called active. Inconclusive results (about 18%) are left out. The list shows a part of the results.
Task for the reader: assign each of the following molecules its reported normalized growth.
Output spec: single numeric token, no unit.

Field request: normalized growth | item: Oc1c(Cl)cc(Cl)cc1Sc1cc(Cl)cc(Cl)c1O
0.978

Could you share which normalized growth value was measured for C=C1C[C@]23C[C@@]1(O)CC[C@H]2[C@@]12C=C[C@H](O)[C@@](C)(C(=O)O1)[C@H]2[C@@H]3C(=O)O ?
1

# lookup: normalized growth of OC[C@H]1O[C@@H](O[C@H]2[C@H](O)[C@@H](O)[C@@H](O)O[C@@H]2CO)[C@H](O)[C@@H](O)[C@@H]1O
1

Value lookup for normalized growth; key = OC[C@H]1O[C@@](CO)(O[C@@H]2O[C@H](CO)[C@@H](O)[C@H](O)[C@H]2O)[C@@H](O[C@@H]2O[C@H](CO)[C@@H](O)[C@H](O)[C@H]2O)[C@@H]1O
0.997

----------
Test: chemical genetic growth profiling, strain panel (AID 1159580);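 note: tested at 20 µM; growth read once vehicle control cultures reached saturation at 30 °C; 1 = growth at the plate median or of vehicle wells; lower values mean less growth of the strain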
Details: S. cerevisiae deletion strains, growth OD, locus YOR083W, strain WHI5 (second series), stronger effect = lower value
In all, about 5,500 compounds went through this assay and about 2,000 (36%) were called active. About 18% were inconclusive and are not listed. The list shows a part of the results.
ENDPOINT: normalized growth
Enter the number alone.

Entry under review: NC(=O)c1ccccc1 . Reported normalized growth?
0.952

Name the reported normalized growth value associated with the compound NCCCNCCCCNCCCN
0.994

Tell me the measured normalized growth of O=C(O)[C@@H]1C[C@@H](C(=O)O)N1 , please.
1.03

Query (compound): Cc1c(C)c2c(c(C)c1O)CCC(C)(CN1CCN(c3cc(N4CCCC4)nc(N4CCCC4)n3)CC1)O2 (stereo not drawn) ; field requested: normalized growth
1.04

Which measured normalized growth value corresponds to Cc1scc2c1N(C(=O)CN1CCN(C)CC1)c1ccccc1NC2=O ?
0.995

I'd like to know its normalized growth. The compound in question is C[C@]12C=CC(=O)C=C1CC[C@@H]1C2=CC[C@]2(C)[C@@H](C(=O)CN3CCN(c4cc(N5CCCC5)nc(N5CCCC5)n4)CC3)CC[C@@H]12
1.01

Which normalized growth reading was recorded for the compound C[N+]1(C)CCC(OC(=O)C(c2ccccc2)c2ccccc2)CC1 ?
1.02

Recorded normalized growth for CCCN1CC(CSC)CC2c3cccc4[nH]cc(c34)CC21 (stereo not drawn) , please?
1.02

I'd like to know its normalized growth. The compound in question is CN=C(NC#N)Nc1ccc(C2=NNC(=O)CC2C)cc1 (stereo not drawn)
1

Need normalized growth of C[N+]1(C)CCOC(O)(c2ccc(-c3ccc(C4(O)C[N+](C)(C)CCO4)cc3)cc2)C1 (stereo not drawn) , thanks.
1.02

Query (compound): CCc1cccc(N(C)C(N)=Nc2cccc3ccccc23)c1 ; field requested: normalized growth
0.931

Reported normalized growth for CC1(C)CCC=[N+]1[O-] : what is it?
1.03

Fill blank: measured normalized growth of the compound Cc1o[nH]c(=O)c1CC(N)C(=O)O (stereo not drawn) is ____.
0.982

Please report the recorded normalized growth for O=C1C(SCCO)=C(SCCO)C(=O)c2ccccc21 .
0.858

# input compound: COc1cc(CC(C)N)c(OC)cc1I (stereo not drawn) ; wanted: its normalized growth
0.984

Could you share which normalized growth value was measured for O=C(O)c1cc[c]([Hg][Cl])cc1 ?
0.77

Entry CC1c2cccc(O)c2C(O)=C2C(=O)C3(O)C(O)=C(C(N)=O)C(=O)C(N(C)C)C3C(O)C21 (stereo not drawn) : reported normalized growth = ?
0.977

Please report the recorded normalized growth for O=C1N(c2ccccc2)c2ccccc2C1(Cc1ccncc1)Cc1ccncc1 .
1.02

Each recorded value in this set is attributed to PubChem BioAssay AID1159580.
